# Tgt: Glycogen synthase kinase-3 beta (Homo sapiens)
# Sequence (P49841 whole entry): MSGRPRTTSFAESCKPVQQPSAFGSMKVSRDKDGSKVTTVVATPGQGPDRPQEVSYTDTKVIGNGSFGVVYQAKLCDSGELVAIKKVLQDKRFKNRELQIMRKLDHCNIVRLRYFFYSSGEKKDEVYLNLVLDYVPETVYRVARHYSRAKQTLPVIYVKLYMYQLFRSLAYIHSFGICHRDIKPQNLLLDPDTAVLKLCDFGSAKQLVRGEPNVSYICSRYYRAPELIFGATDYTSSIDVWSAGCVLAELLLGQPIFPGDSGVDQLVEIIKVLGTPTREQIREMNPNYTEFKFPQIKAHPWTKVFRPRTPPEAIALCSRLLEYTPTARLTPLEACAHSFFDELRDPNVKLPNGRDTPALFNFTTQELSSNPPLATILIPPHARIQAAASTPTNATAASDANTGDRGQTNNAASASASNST
# Assay procedure: concentration-response blocking of human GSK3B – biochemical, luminescence, cell-free homogeneous, retest, dose response (AID 434954)
pEC50: −log10 of the molar value.
Assay metric: pEC50

// known answers, use as guide
INSERT INTO assay_data (compound, tgt, assay_metric, result) VALUES
  ('CC1CN(C(=O)CCCN2C(=O)c3ccccc3C2=O)CC(C)O1 (configuration not stated)', 'Glycogen synthase kinase-3 beta (Homo sapiens)', 'pEC50', '< 3.52'),
  ('Nc1nc(Cl)nc2c1ncn2C1OC(CO)C(O)C1O (configuration not stated)', 'Glycogen synthase kinase-3 beta (Homo sapiens)', 'pEC50', '< 3.52'),
  ('COc1ccc(CCN(C)C(=O)c2ccc(S(=O)(=O)Nc3ccccc3C)cc2)cc1OC', 'Glycogen synthase kinase-3 beta (Homo sapiens)', 'pEC50', '< 3.52');

Tell me the measured pEC50 of COc1ccc(C2C3=C(CC(C)(C)CC3=O)Nc3c2c(=O)nc2nc(C)[nH]n32)cc1 (configuration not stated) , please.
< 3.52

Which pEC50 value is on record for `CNc1nc(N)c(C(=O)C(C)(C)C)s1` ?
< 3.52

Request the reported pEC50 associated with `O=[N+]([O-])c1ccccc1S(=O)(=O)Nc1ccc(S(=O)(=O)Nc2nccs2)cc1`
< 3.52

Return reported pEC50; argument: `CC(C)CNc1nc(N)c([N+](=O)[O-])c(N2CCCCCC2)n1`
4.01

Reported pEC50, compound `Nc1nc(NCCO)nc(NCc2ccccc2)c1[N+](=O)[O-]` : ____
4.69

GET /values?readout=pEC50&item= `CCN1CCc2c(sc(NC(=O)Cc3ccccc3)c2C(N)=O)C1`
< 3.52

Which pEC50 is listed for CCCCOC(=O)c1ccc(O)cc1 [butyl 4-hydroxybenzoate] ?
< 3.52

Which value of pEC50 has been reported for CCOC(=O)C(C)Sc1ccc2nnc(-c3ccc(F)cc3)n2n1 (configuration not stated) in the records?
4.71

Query (compound): `O=C(Nc1cc(-c2ccccc2)n[nH]1)c1ccccc1` ; field requested: pEC50
< 3.52

May I ask what pEC50 has been recorded for `CS(=O)(=O)N1CCN(c2cccc(Cl)n2)CC1` ?
< 3.52

For the compound `Cc1ccc(NS(=O)(=O)c2cccc(C(=O)NN=Cc3c(C)nn(-c4ccccc4)c3N3CCCC3)c2)c(C)c1` , what pEC50 is on record?
< 3.52

Can you share its pEC50? I mean this compound: CC1(C)CC(=O)C2C(=Nc3ccccc3NC2c2cccs2)C1 (configuration not stated)
< 3.52

Find the recorded pEC50 belonging to CC(C)Sc1nc2c(c(=O)[nH]1)C(c1cccs1)C1C(=O)CC(C)(C)CC1=N2 (configuration not stated) and report it.
< 3.52

Give the measured pEC50 of `N#Cc1c(N)nc2c(c1-c1ccc(F)cc1)CCC2` .
< 3.52

Which pEC50 is listed for COc1ccc(C2C(C(C)=O)C(=O)C(=O)N2c2nccs2)c(OC)c1 (configuration not stated) ?
< 3.52

Looking for the measured pEC50 of `CCN(CC)Cc1c(C(=O)NN=Cc2c(Cl)cccc2Cl)nnn1-c1nonc1N` , can you help?
< 3.52

Requested field: pEC50. Item: `COc1ccc(CCNc2c(C=O)c(=O)[nH]c3ccccc23)cc1OC`
< 3.52

Which pEC50 is reported for this compound? `CCOC(=O)c1sc(Nc2ccccc2)nc1C`
< 3.52

Any idea what its pEC50 is? The compound is `Oc1ccc(CN=Nc2ncc(Br)cn2)c(O)c1`
4.91

// lookup pEC50 for `C=CCNc1nc(N)c([N+](=O)[O-])c(Nc2cccc(Cl)c2)n1`
4.93

Recorded pEC50 for `COc1ccccc1-c1ccc(=O)n(CC(=O)NCc2ccco2)n1` , please?
< 3.52

// lookup pEC50 for `CC(C)n1cnc2c(Nc3cccc(Cl)c3)nc(NCCCO)nc21`
< 3.52

Give the measured pEC50 of `COc1ccc(-c2nn(-c3ccccc3)cc2C=O)cc1[N+](=O)[O-]` .
< 3.52

Recorded pEC50 of `Fc1ccc(CSc2ccc3nnc(-c4cccs4)n3n2)cc1` , please.
< 3.52

Given the entry `COc1ccc(Nc2nc(N)c([N+](=O)[O-])c(NCc3ccccc3)n2)cc1` , report its measured pEC50.
4.99
